Below, each of the compounds is paired with its reported TGI value.
# Tested on: HS 578T breast
# ASSAY: NCI tumour cell line growth inhibition, 48 h

Known TGI results, listed for orientation:
# COMPOUND, TGI
measured = [
    ("OCCCCC#Cc1ccccc1C#Cc1cccc(C(F)(F)F)c1", "71.3 µM"),
    ("CCN(CC)CCNc1ccc2ncn3c4ccc(O)cc4c(=O)c1c23", "21 µM"),
]

input: Complete the entry with TGI for COC(=O)/C=C(\C(=O)OC)c1cc(C)c2cc(C(C)C)ccc(C)c1-2
output: > 100 µM

input: Output TGI of Cn1c2ccccc2c(=O)c2c(O)cc3c(c21)C1OCC(C)(O)C1O3 (stereo unspecified)
output: 37.5 µM

input: Tell us which TGI value is on record for COC(CN(C)C(=S)Nc1cccc2ccccc12)OC
output: > 10 µM

input: Fill in reported TGI for this entry: COC1(OC)CCc2c(sc3ncnc(Nc4cccc(Br)c4)c23)C1
output: > 100 µM

input: Consider the compound COc1ccccc1Oc1nccc(-c2c(-c3ccc(F)cc3)ncn2C2CCNCC2)n1 . State its measured TGI.
output: > 23 µM

input: Consider the compound COC(=O)c1c(C)cccc1/C=C1\Cc2ccc(C)c(C)c2C1=O . State its measured TGI.
output: > 100 µM

input: Give TGI for the following compound: O=C(O)CCCc1ccc2c(c1)CC1(C2)Cc2cc3c(cc2C1)CCCC3
output: > 100 µM

input: Give reported TGI value for C=CCON(C(=O)OC(C)(C)C)C(C)(C)C
output: > 100 µM

input: Report measured TGI; entry is Cc1[nH]n(-c2nc3c(c(=O)[nH]2)CCCC3)c(=O)c1CCO
output: > 100 µM
